EXPERIMENTAL_SYSTEM: OSM (Homo sapiens, UniProt P13725)
ASSAY_REMARKS: Fluorescence quenching assay of SMI binding to OSM
STATED_CONDITIONS: average of three independent replicates, errors at 95% confidence level, read-out: KD (OSM-SMI dissociation constant)
The entries below are paired with their reported Kd.
Reply numerically in µM, unit not repeated.

Solved cases (7 shown):
>>> print(df.to_string())
                                   compound                 experimental_system  result_type  unit_spec  result_value
0  Cn1c(/C=C/C(=O)O)cc(-c2ccc3c(c2)OCO3)c1-c1ccc2c(c1)OCO2 [SMI-10B6]  OSM (Homo sapiens, UniProt P13725)           Kd         µM            10
1  COc1cc(-c2cc(/C=C/C(=O)O)oc2-c2ccc(O)c(OC)c2)ccc1O [SMI-10B3]  OSM (Homo sapiens, UniProt P13725)           Kd         µM          18.5
2  O=C(O)/C=C/c1cc(-c2ccc3c(c2)OCO3)c(-c2ccccc2)o1 [SMI-10B9]  OSM (Homo sapiens, UniProt P13725)           Kd         µM          18.2
3  C(=N\Nc1ccccc1)/c1cc(-c2ccc3c(c2)OCO3)c(-c2ccc3c(c2)OCO3)o1 [SMI-10E]  OSM (Homo sapiens, UniProt P13725)           Kd         µM          21.2
4  O=C(O)/C=C/c1cc(-c2ccccc2)c(-c2ccccc2)o1 [SMI-10B10]  OSM (Homo sapiens, UniProt P13725)           Kd         µM          20.7
5  O=C(O)CCc1cc(-c2ccc(F)c(F)c2)c(-c2ccc3c(c2)OCO3)o1 [SMI-10B15]  OSM (Homo sapiens, UniProt P13725)           Kd         µM           8.9
6  O=C(O)CCc1cc(-c2ccc(Cl)c(Cl)c2)c(-c2ccc3c(c2)OCO3)o1 [SMI-10B18]  OSM (Homo sapiens, UniProt P13725)           Kd         µM          13.5

// below: Kd requested for another compound
Form: compound = O=C(/C=C/c1cc(-c2ccc3c(c2)OCO3)c(-c2ccc3c(c2)OCO3)o1)c1ccccc1 [SMI-10C] ; Kd = 32.5

----------
Here, each record is paired with measured Kd data.
EXPERIMENTAL_SYSTEM: OSM (Homo sapiens)
ASSAY_REMARKS: Fluorescence quenching assay of SMI binding to OSM
STATED_CONDITIONS: average of three independent replicates, errors at 95% confidence level, read-out: KD (OSM-SMI dissociation constant)
Number in µM, nothing else.

Example cases with answers are listed next.
>>> df
                                   compound  result_value
0  O=C(O)/C=C/c1cc(-c2ccc3c(c2)OCO3)c(-c2ccc3c(c2)OCO3)[nH]1 [SMI-10B5]           9.2
1  O=C(O)/C=C/c1cc(-c2ccc3c(c2)OCO3)co1 [SMI-10B12]          66.7

So, O=C(O)/C=C/c1cc(-c2ccc3c(c2)OCO3)c(-c2ccc3c(c2)OCO3)o1 [SMI-10B] ? Its Kd was 12.9

Lab note: c1ccc(CNCc2cc(-c3ccc4c(c3)OCO4)c(-c3ccc4c(c3)OCO4)o2)cc1 [SMI-10F] gave Kd of 16.8

The measured Kd associated with COc1ccc(-c2cc(/C=C/C(=O)O)oc2-c2ccc(OC)c(O)c2)cc1O [SMI-10B2] reads 17.5

Reported Kd of O=C(O)/C=C/c1cc(-c2ccccc2)c(-c2ccc3c(c2)OCO3)o1 [SMI-10B8] : 7.2

// Kd lookup, compound = O=C(O)CCc1cc(-c2cncnc2)c(-c2ccc3c(c2)OCO3)o1 [SMI-10B16] , result: 16.5

Looking up O=C(O)c1cc(-c2ccc3c(c2)OCO3)c(-c2ccc3c(c2)OCO3)o1 [SMI-10I] , I see its Kd listed as 46.2

----------
EXPERIMENTAL_SYSTEM: OSM (Homo sapiens)
Sequence (P13725 26-252): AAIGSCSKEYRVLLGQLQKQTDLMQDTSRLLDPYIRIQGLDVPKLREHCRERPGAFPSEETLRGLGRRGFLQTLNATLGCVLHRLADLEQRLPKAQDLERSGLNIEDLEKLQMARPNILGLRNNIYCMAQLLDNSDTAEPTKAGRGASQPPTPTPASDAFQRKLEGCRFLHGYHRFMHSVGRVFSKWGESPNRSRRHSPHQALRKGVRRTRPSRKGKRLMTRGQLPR
ASSAY_REMARKS: Fluorescence quenching assay of SMI binding to OSM
STATED_CONDITIONS: average of three independent replicates, errors at 95% confidence level, read-out: KD (OSM-SMI dissociation constant)
Below, each entry is listed alongside its reported Kd.
Give your result in µM as a bare value.

// below: answered compounds
In [3]: df
Out[3]:
                                   compound  result_type  result_value
0  O=C(O)/C=C/c1cc(-c2ccc3c(c2)OCO3)c(-c2ccc3c(c2)OCO3)s1 [SMI-10B4]           Kd          21.2
1  COc1ccc(-c2cc(CCC(=O)O)oc2-c2ccc3c(c2)OCO3)cc1 [SMI-10B17]           Kd          34.5
2  O=C(/C=C/c1ccccc1)c1cc(-c2ccc3c(c2)OCO3)c(-c2ccc3c(c2)OCO3)o1 [SMI-10G]           Kd          21.9
3  CCOC(=O)/C=C/c1cc(-c2ccc3c(c2)OCO3)c(-c2ccc3c(c2)OCO3)o1 [SMI-10D]           Kd          20.9
4  O=C(NCc1ccccc1)c1cc(-c2ccc3c(c2)OCO3)c(-c2ccc3c(c2)OCO3)o1 [SMI-10J]           Kd          30.5

O=C(O)/C=C/c1ccc(-c2ccc3c(c2)OCO3)o1 [SMI-10B11] yielded Kd of 20.1

Kd reading for COc1ccc(-c2cc(/C=C/C(=O)O)oc2-c2ccc(OC)c(OC)c2)cc1OC [SMI-10B1] : 18.4

O=C(O)CCc1cc(-c2ccc3c(c2)OCO3)c(-c2ccc3c(c2)OCO3)o1 [SMI-10B14] yielded Kd of 9.1

Looking up COC(=O)c1cc(-c2ccc3c(c2)OCO3)c(-c2ccc3c(c2)OCO3)o1 [SMI-10A] , I see its Kd listed as 29.6

----------
System: OSM-induced pSTAT3 in T47D human breast cancer cells
ASSAY_REMARKS: pSTAT3 ELISA in T47D cells treated with OSM ± SMI
Assay type: cell-based
STATED_CONDITIONS: T47D; SMI 10 μM + OSM 10 ng/mL, 30 min; ELISA; relative to +OSM, no-treatment blank subtracted
Measured Relative pSTAT3 Levels (Table 2, SMI-10B analogs), listed per entry.
Your answer should be a plain number; it is taken to be in %.

>>> df
                                   compound  unit_spec  result_value
0  O=C(O)/C=C/c1cc(-c2ccc3cc[nH]c3c2)c(-c2ccc3cc[nH]c3c2)o1          %          32.7
1  COc1ccc(-c2cc(/C=C/C(=O)O)oc2-c2ccc(OC)c(O)c2)cc1O          %         56.66
2  O=C(O)/C=C/c1cc(-c2ccc3c(c2)OCO3)c(-c2ccc3c(c2)OCO3)o1 [SMI-10B]          %         30.14
3  O=C(O)/C=C/c1cc(-c2ccccc2)c(-c2ccc3c(c2)OCO3)o1          %         81.66
4  O=C(O)CCc1cc(-c2ccc(Cl)c(Cl)c2)c(-c2ccc3c(c2)OCO3)o1          %         35.00
5  O=C(O)/C=C/c1cc(-c2ccc3c(c2)OCO3)c(-c2ccc3c(c2)OCO3)s1          %         17.98

The reported Relative pSTAT3 Levels (Table 2, SMI-10B analogs) value, OSM-induced pSTAT3 in T47D human breast cancer cells, for O=C(O)/C=C/c1cc(-c2ccccc2)c(-c2ccccc2)o1 reads 46.10

Measured Relative pSTAT3 Levels (Table 2, SMI-10B analogs) for this entry COc1ccc(-c2cc(/C=C/C(=O)O)oc2-c2ccc(OC)c(OC)c2)cc1OC on OSM-induced pSTAT3 in T47D human breast cancer cells: 62.35
